Recorded pIC50 for the following molecules
Target under test: 5‐LO (Homo sapiens)
Sequence (P09917 1-674): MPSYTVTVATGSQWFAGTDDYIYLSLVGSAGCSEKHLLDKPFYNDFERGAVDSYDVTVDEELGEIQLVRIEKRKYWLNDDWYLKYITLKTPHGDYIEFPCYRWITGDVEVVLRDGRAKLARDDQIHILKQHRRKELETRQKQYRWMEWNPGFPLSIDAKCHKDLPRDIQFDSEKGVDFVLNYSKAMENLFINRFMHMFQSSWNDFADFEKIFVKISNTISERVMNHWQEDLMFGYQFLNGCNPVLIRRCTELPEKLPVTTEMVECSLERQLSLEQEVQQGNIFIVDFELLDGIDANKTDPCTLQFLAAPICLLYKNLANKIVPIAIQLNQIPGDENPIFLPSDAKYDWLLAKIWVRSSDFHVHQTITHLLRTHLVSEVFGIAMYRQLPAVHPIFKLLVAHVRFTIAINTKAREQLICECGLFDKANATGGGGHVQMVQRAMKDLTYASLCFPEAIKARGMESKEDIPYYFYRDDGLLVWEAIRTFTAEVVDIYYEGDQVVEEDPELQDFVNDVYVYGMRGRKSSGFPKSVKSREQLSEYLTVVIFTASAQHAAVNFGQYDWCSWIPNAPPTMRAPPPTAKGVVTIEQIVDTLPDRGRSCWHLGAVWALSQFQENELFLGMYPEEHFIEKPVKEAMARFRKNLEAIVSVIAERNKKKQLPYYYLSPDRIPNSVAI
Experimental details: Biosynthesis of 5‐LO products in thapsigargin‐stimulated human PMNL
Type: cell-based
Parameters: endogenous in cells; host or cells: human polymorphonuclear leukocytes isolated from heparinized blood
Condition summary: 5‐LO product biosynthesis in human PMNL; mean (95% confidence interval)
pIC50: −log10 of the molar value.

{"Molecule": "O=C(/C=C/c1ccc(O)c(O)c1)CCCc1ccccc1", "Target under test": "5‐LO (Homo sapiens)", "pIC50": 6.28}
{"Molecule": "O=C(/C=C/c1ccc(O)c(O)c1)OCCc1ccccc1 [CAPE (2), caffeic acid phenethyl ester, reference compound]", "Target under test": "5‐LO (Homo sapiens)", "pIC50": 6.01}
{"Molecule": "COc1cc(/C=C/C(=O)CCc2ccccc2)cc(OC)c1O", "Target under test": "5‐LO (Homo sapiens)", "pIC50": 6.39}
{"Molecule": "O=C(/C=C/c1cc(O)ccc1O)OCCc1ccccc1", "Target under test": "5‐LO (Homo sapiens)", "pIC50": 6.49}
{"Molecule": "COc1cc(/C=C/C(=O)OCCc2ccccc2)cc(OC)c1O", "Target under test": "5‐LO (Homo sapiens)", "pIC50": 6.54}
{"Molecule": "O=C(/C=C/c1cc(O)ccc1O)CCc1ccccc1", "Target under test": "5‐LO (Homo sapiens)", "pIC50": 6.29}

====

Target under test: 5‐LO (Homo sapiens, UniProt P09917)
Experimental details: Ex vivo whole blood stimulation with opsonized zymosan, 5‐LO products
Type: cell-based
Parameters: endogenous in cells; host or cells: human polymorphonuclear leukocytes isolated from heparinized blood
Condition summary: 5‐LO product biosynthesis in whole blood, mean (95% confidence interval)
pIC50: −log10 of the molar value.
Recorded pIC50 for the following compounds

{"Compound": "COc1cc(/C=C/C(=O)OCCc2ccccc2)cc(OC)c1O [compound 9, sinapic acid phenethylester]", "pIC50": 5.72}
{"Compound": "COc1cc(/C=C/C(=O)CCc2ccccc2)cc(OC)c1O [compound 10, sinapic acid phenethyl ketone]", "pIC50": 5.92}
{"Compound": "O=C(/C=C/c1cc(O)ccc1O)CCc1ccccc1 [compound 8]", "pIC50": 5.94}
{"Compound": "O=C(/C=C/c1cc(O)ccc1O)OCCc1ccccc1 [compound 5]", "pIC50": 6.00}
{"Compound": "O=C(/C=C/c1ccc(O)c(O)c1)CCCc1ccccc1 [compound 7]", "pIC50": 5.64}
{"Compound": "O=C(/C=C/c1ccc(O)c(O)c1)OCCc1ccccc1 [CAPE (2), caffeic acid phenethyl ester, reference compound]", "pIC50": 5.45}

====

Recorded Half-life in HepaRG cell cultures for the following compounds
System: HepaRG cells
Experimental details: Kinetics of test compound disappearance in HepaRG cell culture (HPLC)
Format: in vitro ADME, human
Condition summary: 30 µmol/L, 37°C; mean (95% confidence interval), four experiments
Measured endpoint: Half-life in HepaRG cell cultures

{"Compound": "O=C(/C=C/c1cc(O)ccc1O)OCCc1ccccc1", "Target under test": "HepaRG cells", "Test result": "3.71 (3.67-3.74) Minutes"}
{"Compound": "COc1cc(/C=C/C(=O)OCCc2ccccc2)cc(OC)c1O", "Target under test": "HepaRG cells", "Test result": "4.38 (4.23 - 4.55) Minutes"}
{"Compound": "COc1cc(/C=C/C(=O)CCc2ccccc2)cc(OC)c1O", "Target under test": "HepaRG cells", "Test result": "11.32 (10.21- 12.71) Minutes"}
{"Compound": "O=C(/C=C/c1ccc(O)c(O)c1)OCCc1ccccc1 [CAPE (2), caffeic acid phenethyl ester, reference compound]", "Target under test": "HepaRG cells", "Test result": "4.70 (4.42 - 5.02) Minutes"}
{"Compound": "O=C(/C=C/c1ccc(O)c(O)c1)CCCc1ccccc1", "Target under test": "HepaRG cells", "Test result": "6.42 (5.72 -7.31) Minutes"}
{"Compound": "O=C(/C=C/c1cc(O)ccc1O)CCc1ccccc1", "Target under test": "HepaRG cells", "Test result": "6.48 (6.01-7.04) Minutes"}
